This collection of values is drawn from paper PMC7984827.

TESTED_ON: E6-Caspase 8 binding (Human papillomavirus type 16)
Construct: made in house; host or cells: E. coli
Sequence (P03126 whole entry): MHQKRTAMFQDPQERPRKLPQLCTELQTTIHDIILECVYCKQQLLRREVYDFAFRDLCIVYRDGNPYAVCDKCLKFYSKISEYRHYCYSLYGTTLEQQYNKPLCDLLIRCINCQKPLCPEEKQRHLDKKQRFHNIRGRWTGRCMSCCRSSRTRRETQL
ASSAY_PROCEDURE: biochemical
Parameters: species or system HPV E6, human Caspase 8
APPLIED_CONDITIONS: head-to-head comparison gambogic acid vs myricetin (Figure 4A); read-out: IC50 against E6-Caspase 8
QUANTITY_NAME: pIC50
On this scale, pIC50 is minus log10 of a concentration expressed in M (mol/L).

Look up pIC50: CC(C)=CCC[C@]1(C)C=Cc2c(O)c3c(c(CC=C(C)C)c2O1)O[C@]12C(=C[C@@H]4C[C@H]1C(C)(C)O[C@@]2(C/C=C(/C)C(=O)O)C4=O)C3=O
5.72
